Tested on: astro (control astrocytes)
ASSAY_INFO: Drug repurposing screens with cells derived from glioblastoma tumor samples (AID 1345199); note: nearly all actives have a fitted effect of over 40% in size
TEST_SETTINGS: viability, ATP luminescence, 48 h; series mostly up to 45.9 µM
Protocol: CD133+ cells were isolated from GBM patient biopsies and cultured as neurospheres. Neurospheres from four patients were used to screen the NCATS pharmaceutical collection (NPC) library of approved drugs and bioactive compounds. […] The neurospheres were incubated with drugs for 48 hours in 1536-well format, then assayed with an ATP content cell viability assay. […]
Results filed as inconclusive are left out. Active and inactive are the calls of the source. Calls come from the whole dose curve; as a rule, active = well fitted inhibition curve with a large enough effect; inconclusive = small, poorly fitted or top-dose-only effect; inactive = flat fitted curve, though single readings scatter. Where a SMILES comes first, the peptide text is derived from it. Bridges are numbered along the chain shown (N, C = ends). [ ]: non-standard residue; d: D form. hArg = N=C(N)NCCCC[C@H](N)C(=O)O; Mpa = O=C(O)CCS
MEASUREMENT_LABEL: outcome

INSERT INTO measurements (compound, test_value) VALUES
  ('Cc1onc(-c2ccccc2)c1-c1ccc(S(N)(=O)=O)cc1', 'inactive'),
  ('CC(O)CCCCn1c(=O)c2c(ncn2C)n(C)c1=O (stereo not given)', 'inactive'),
  ('O=C(CN1CCNCC1)NC1CCCCC1', 'inactive'),
  ('COC(=O)N/N=C/c1c[n+]([O-])c2ccccc2[n+]1[O-]', 'inactive'),
  ('CC(=O)OC[C@H]1O[C@@](COC(C)=O)(O[C@H]2O[C@H](COC(C)=O)[C@@H](OC(C)=O)[C@H](OC(C)=O)[C@H]2OC(C)=O)[C@@H](OC(C)=O)[C@@H]1OC(C)=O', 'inactive'),
  ('Cc1ccsc1C(=CCCN1CCC[C@@H](C(=O)O)C1)c1sccc1C', 'inactive'),
  ('Cc1cccc(C)c1NC(=O)CC12CCCN1CCC2', 'inactive'),
  ('CCN(CC)CCOC(=O)C(c1ccccc1)c1ccccc1', 'inactive'),
  ('CCN[C@H]1CN(CCCOC)S(=O)(=O)c2sc(S(N)(=O)=O)cc21', 'inactive'),
  ('NC(=O)[C@@H]1CSSCCC(=O)N[C@@H](CCCCN=C(N)N)C(=O)NCC(=O)N[C@@H](CC(=O)O)C(=O)N[C@@H](Cc2c[nH]c3ccccc23)C(=O)N2CCC[C@H]2C(=O)N1 ([Mpa][hArg]GDWPC-NH2; disulfide 1-7)', 'inactive'),
  ('COc1ccc(-c2cc(=O)c3c(O)cc(O[C@@H]4O[C@H](CO[C@@H]5O[C@@H](C)[C@H](O)[C@@H](O)[C@H]5O)[C@@H](O)[C@H](O)[C@H]4O)cc3o2)cc1O', 'inactive'),
  ('Cc1cc(=O)[nH]c(=S)[nH]1', 'inactive'),
  ('CC(=O)OCC(=O)[C@@]1(O)CC[C@H]2[C@@H]3CCC4=CC(=O)C=C[C@]4(C)[C@@]3(F)[C@@H](O)C[C@@]21C', 'inactive'),
  ('CC1CCc2cc(F)cc3c(=O)c(C(=O)O)cn1c23 (stereo not given)', 'inactive'),
  ('Cc1ncc(CO)c(CN)c1O', 'inactive'),
  ('NS(=O)(=O)c1ccc(C(=O)O)cc1', 'inactive'),
  ('OC[C@@H](O)[C@@H](O)[C@H](O)[C@H](O)CO', 'inactive'),
  ('O=C(NCC(O)CO)c1c(I)c(C(=O)NCC(O)CO)c(I)c(N(CCO)C(=O)CO)c1I (stereo not given)', 'inactive'),
  ('CC1(c2ccccc2)OC(C(=O)O)=CC1=O (stereo not given)', 'inactive'),
  ('CC(C(=O)O)c1ccc2c(c1)Cc1cccnc1O2 (stereo not given)', 'inactive');
